Biological target: CDK5/p25 (Homo sapiens, UniProt Q00535)
Construct: host or cells: bacteria
Sequence (Q00535 whole entry): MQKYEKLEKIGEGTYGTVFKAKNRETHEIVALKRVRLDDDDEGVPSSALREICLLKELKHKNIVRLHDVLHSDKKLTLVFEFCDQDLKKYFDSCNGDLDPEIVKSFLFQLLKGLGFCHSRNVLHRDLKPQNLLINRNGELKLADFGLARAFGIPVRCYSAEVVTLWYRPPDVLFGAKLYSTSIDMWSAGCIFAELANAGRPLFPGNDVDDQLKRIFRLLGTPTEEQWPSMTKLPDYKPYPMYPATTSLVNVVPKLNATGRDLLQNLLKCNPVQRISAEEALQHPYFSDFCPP
Sequence (Q15078 99-307, further chain): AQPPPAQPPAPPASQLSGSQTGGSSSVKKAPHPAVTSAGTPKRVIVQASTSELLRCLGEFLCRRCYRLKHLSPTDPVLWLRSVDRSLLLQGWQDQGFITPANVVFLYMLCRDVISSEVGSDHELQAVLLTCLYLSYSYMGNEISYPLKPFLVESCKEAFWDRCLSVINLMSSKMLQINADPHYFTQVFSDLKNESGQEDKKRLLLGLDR
Test: ADP-Glo kinase inhibition assay, CDK5/p25
Format: biochemical
Conditions: read-out: CDK5 % residual activity at 1 μM
Lab note: anything with remaining activity at 1 µM below 70% is marked Yes; values at 70% or higher are marked No.

[[record]]
compound = "CCn1ncc2cc3cncc(Br)c3c([N+](=O)[O-])c21"
measured_on = "CDK5/p25 (Homo sapiens, UniProt Q00535)"
class_assignment = "No"


Task: Quick check: remaining activity at 1 µM of `CCn1ncc2c(C)c3cnccc3c([N+](=O)[O-])c21` under 70%?
Result: Yes

Task: Record `CCn1ncc2cc3cnccc3c([N+](=O)[O-])c21` : is its remaining activity at 1 µM strictly below 70%?
Result: No

Task: Below 70% on remaining activity at 1 µM? Entry Nc1c2ccncc2cc2cn[nH]c12 [Compound 2a, 1-H-pyrazolo[3,4-g]isoquinolin-9-amine]
Result: Yes

Task: Item `O=[N+]([O-])c1c2ccncc2cc2cn[nH]c12` : remaining activity at 1 µM beneath 70%, strictly?
Result: No

Task: Does the reported remaining activity at 1 µM of `CCc1c2cnccc2c([N+](=O)[O-])c2c1cnn2CC` stay below 70%?
Result: Yes
